# MEASUREMENT TARGET: feline FcRn (FCN-F82W3, Acrobiosystems) (feline)
# ASSAY NOTES: SPR Carterra, IgG coupled, pH 6.0
PARAMETER MEASURED: kon (M⁻¹ s⁻¹)
State the answer as a number, implicitly in M⁻¹ s⁻¹.

{"BINDER": "anti-NGF feline IgG1a, Fc variant S252R, A378E (antibody, part only; not given: Anti-NGF variable domains, not shown: another chain or arm of the molecule; small tags and cut ends) Fc: PPEMLGGPSIFIFPPKPKDTLRISRTPEVTCLVVDLGPDDSDVQITWFVDNTQVYTAKTSPREEQFNSTYRVVSVLPILHQDWLKGKEFKCKVNSKSLPSPIERTISKAKGQPHEPQVYVLPPAQEELSRNKVSVTCLIKSFHPPDIEVEWEITGQPEPENNYRTTPPQLDSDGTYFVYSKLSVDRSHWQRGNTYTCSVSHEALHSHHTQKSLTQSPGK", "MEASURED VALUE": 262000}

Proceeding to the next binder to report its kon.
Exercise: Consider the binder anti-NGF feline IgG1a, Fc variant S252Y, Q311V (antibody, part only; not given: anti-NGF variable domains, light chain, not shown: another chain or arm of the molecule; small tags and cut ends) Fc: PPEMLGGPSIFIFPPKPKDTLYISRTPEVTCLVVDLGPDDSDVQITWFVDNTQVYTAKTSPREEQFNSTYRVVSVLPILHVDWLKGKEFKCKVNSKSLPSPIERTISKAKGQPHEPQVYVLPPAQEELSRNKVSVTCLIKSFHPPDIAVEWEITGQPEPENNYRTTPPQLDSDGTYFVYSKLSVDRSHWQRGNTYTCSVSHEALHSHHTQKSLTQSPGK and give its measured kon.
Solution: 1.06e+06

Values were extracted from patent US20250304650A1.
